# target.system: hTopo II (Homo sapiens, UniProt P11388)
# Construct: purchased TopoGEN, Port Orange, FL
# Sequence (P11388 whole entry): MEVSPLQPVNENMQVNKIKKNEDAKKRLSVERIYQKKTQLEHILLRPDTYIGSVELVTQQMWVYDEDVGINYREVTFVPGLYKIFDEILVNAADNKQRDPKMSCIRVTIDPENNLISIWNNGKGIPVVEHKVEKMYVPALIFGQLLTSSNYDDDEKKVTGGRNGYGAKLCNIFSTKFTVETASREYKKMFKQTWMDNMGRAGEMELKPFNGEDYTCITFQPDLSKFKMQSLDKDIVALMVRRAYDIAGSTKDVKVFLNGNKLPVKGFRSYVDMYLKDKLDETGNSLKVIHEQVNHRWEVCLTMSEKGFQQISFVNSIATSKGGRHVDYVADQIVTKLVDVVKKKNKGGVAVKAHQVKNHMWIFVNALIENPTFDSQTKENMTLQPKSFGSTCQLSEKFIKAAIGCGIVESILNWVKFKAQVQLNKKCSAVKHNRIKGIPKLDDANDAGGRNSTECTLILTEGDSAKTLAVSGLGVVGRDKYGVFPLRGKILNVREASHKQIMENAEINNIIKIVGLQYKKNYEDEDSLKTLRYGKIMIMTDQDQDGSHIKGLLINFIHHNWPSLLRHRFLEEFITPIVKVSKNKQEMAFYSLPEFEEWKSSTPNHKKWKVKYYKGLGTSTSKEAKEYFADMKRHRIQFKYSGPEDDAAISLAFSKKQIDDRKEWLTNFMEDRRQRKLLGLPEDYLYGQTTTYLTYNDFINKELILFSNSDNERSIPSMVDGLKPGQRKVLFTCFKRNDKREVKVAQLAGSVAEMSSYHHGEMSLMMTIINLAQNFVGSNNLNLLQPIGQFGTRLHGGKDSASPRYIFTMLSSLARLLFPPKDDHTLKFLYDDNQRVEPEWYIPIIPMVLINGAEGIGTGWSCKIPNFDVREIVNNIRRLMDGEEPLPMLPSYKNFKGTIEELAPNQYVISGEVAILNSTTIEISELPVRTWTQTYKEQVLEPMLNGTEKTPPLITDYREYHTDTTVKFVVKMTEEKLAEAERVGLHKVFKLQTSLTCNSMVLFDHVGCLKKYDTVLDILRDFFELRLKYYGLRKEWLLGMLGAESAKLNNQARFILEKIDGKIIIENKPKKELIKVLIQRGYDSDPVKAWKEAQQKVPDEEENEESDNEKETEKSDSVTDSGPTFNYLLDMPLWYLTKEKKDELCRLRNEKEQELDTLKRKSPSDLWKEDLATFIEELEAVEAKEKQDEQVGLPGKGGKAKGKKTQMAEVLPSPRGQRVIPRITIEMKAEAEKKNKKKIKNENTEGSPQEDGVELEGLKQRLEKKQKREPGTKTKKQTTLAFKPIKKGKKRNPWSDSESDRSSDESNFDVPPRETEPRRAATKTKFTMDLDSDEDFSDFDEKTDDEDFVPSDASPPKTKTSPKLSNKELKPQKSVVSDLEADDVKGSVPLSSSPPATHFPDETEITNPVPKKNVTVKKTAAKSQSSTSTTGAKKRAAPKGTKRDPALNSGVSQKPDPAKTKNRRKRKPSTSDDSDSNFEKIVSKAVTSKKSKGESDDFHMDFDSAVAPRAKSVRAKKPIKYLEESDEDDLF
# assay.explanation: hTopo II decatenation assay
# Type: biochemical
# Design: key: (+) inhibition; (−) no inhibition; (+/−) partial inhibition
# cond: 50 µM
readout: Topoisomerase Inhibition hTopo II

{"compound": "COc1cc(/C=C2\\SC(=O)N(CC(=O)Nc3nc(-c4ccc(Cl)cc4)cs3)C2=O)cc(OC)c1OC", "readout": "Topoisomerase Inhibition hTopo II", "result": "+"}
{"compound": "COc1cc(/C=C2\\SC(=O)N(CC(=O)Nc3nc(-c4ccc(Br)cc4)cs3)C2=O)cc(OC)c1OC", "readout": "Topoisomerase Inhibition hTopo II", "result": "+"}
{"compound": "Cc1c2ccncc2c(C)c2c1[nH]c1ccccc12 [ellipticine, reference compound]", "readout": "Topoisomerase Inhibition hTopo II", "result": "+"}
{"compound": "COc1cc(/C=C2\\SC(=O)N(CC(=O)Nc3nc(-c4ccccc4)cs3)C2=O)cc(OC)c1OC", "readout": "Topoisomerase Inhibition hTopo II", "result": "−"}
{"compound": "COc1cc(/C=C2\\SC(=O)N(CC(=O)Nc3nc(-c4ccc(C)cc4)cs3)C2=O)cc(OC)c1OC", "readout": "Topoisomerase Inhibition hTopo II", "result": "+"}
{"compound": "COc1cc(/C=C2\\SC(=O)N(CC(=O)Nc3nc4ccccc4s3)C2=O)cc(OC)c1OC", "readout": "Topoisomerase Inhibition hTopo II", "result": "+"}

###

# Tested on: A2058 melanoma cells
# assay.explanation: MTT cell viability assay, A2058
# Assay type: cell-based
# cond: Homo sapiens, 72 h
# Procedure: All of the synthesized compounds (7a–f) were studied to test their anticancer activity toward the estrogen receptor-positive (ER+) MCF-7 and the triple-negative MDA-MB-231 breast cancer cells (ER-, PR- and HER-2/Neu not overexpressed) and A2058 melanoma cells. Cells were incubated for 72 h with different concentrations of the compounds, and then the viability was checked by the MTT assay. […]
pIC50: −log10 of the molar value.
The threshold is inclusive: pIC50 of exactly 5 counts as met; values below receive not met.

{"compound": "COc1cc(/C=C2\\SC(=O)N(CC(=O)Nc3nc(-c4ccc(C)cc4)cs3)C2=O)cc(OC)c1OC [compound 7c]", "label": "met"}
{"compound": "COc1cc(/C=C2\\SC(=O)N(CC(=O)Nc3nc(-c4ccc(Cl)cc4)cs3)C2=O)cc(OC)c1OC [compound 7d]", "label": "met"}
{"compound": "COc1cc(/C=C2\\SC(=O)N(CC(=O)Nc3nc4ccccc4s3)C2=O)cc(OC)c1OC [compound 7f]", "label": "not met"}
{"compound": "Cc1c2ccncc2c(C)c2c1[nH]c1ccccc12 [ellipticine, reference compound]", "label": "met"}
{"compound": "COc1cc(/C=C2\\SC(=O)N(CC(=O)Nc3nc(-c4ccccc4)cs3)C2=O)cc(OC)c1OC [compound 7b]", "label": "met"}
{"compound": "COc1cc(/C=C2\\SC(=O)N(CC(=O)Nc3nccs3)C2=O)cc(OC)c1OC [compound 7a]", "label": "not met"}

###

# target.system: hTopo I (Homo sapiens, UniProt P11387)
# Construct: purchased TopoGEN, Port Orange, FL, USA
# Sequence (P11387 whole entry): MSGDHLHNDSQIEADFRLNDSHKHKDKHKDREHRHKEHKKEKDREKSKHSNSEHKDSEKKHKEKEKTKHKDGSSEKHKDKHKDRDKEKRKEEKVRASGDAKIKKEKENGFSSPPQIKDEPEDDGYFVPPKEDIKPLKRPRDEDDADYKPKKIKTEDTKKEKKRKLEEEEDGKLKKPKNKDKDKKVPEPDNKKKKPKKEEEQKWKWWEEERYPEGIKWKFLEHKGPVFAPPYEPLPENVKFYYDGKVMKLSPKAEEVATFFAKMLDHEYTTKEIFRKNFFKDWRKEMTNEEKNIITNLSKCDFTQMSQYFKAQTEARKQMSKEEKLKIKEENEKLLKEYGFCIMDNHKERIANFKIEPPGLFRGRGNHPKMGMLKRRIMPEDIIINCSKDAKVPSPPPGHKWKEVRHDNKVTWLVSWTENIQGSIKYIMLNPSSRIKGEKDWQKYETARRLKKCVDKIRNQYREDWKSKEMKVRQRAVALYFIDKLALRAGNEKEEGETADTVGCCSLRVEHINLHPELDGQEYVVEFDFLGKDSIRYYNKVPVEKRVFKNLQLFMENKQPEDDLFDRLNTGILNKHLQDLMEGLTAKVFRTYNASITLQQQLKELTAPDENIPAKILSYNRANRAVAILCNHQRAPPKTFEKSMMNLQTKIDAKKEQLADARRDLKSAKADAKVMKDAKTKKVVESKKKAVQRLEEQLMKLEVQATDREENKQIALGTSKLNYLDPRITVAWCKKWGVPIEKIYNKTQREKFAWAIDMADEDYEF
# assay.explanation: hTopo I relaxation assay
# Type: biochemical
# Parameters: key: (+) inhibition; (−) no inhibition; (+/−) partial inhibition
# cond: 10 µM
readout: Topoisomerase Inhibition hTopo I

{"compound": "COc1cc(/C=C2\\SC(=O)N(CC(=O)Nc3nc4ccccc4s3)C2=O)cc(OC)c1OC", "readout": "Topoisomerase Inhibition hTopo I", "result": "+"}
{"compound": "COc1cc(/C=C2\\SC(=O)N(CC(=O)Nc3nc(-c4ccc(C)cc4)cs3)C2=O)cc(OC)c1OC", "readout": "Topoisomerase Inhibition hTopo I", "result": "−"}
{"compound": "COc1cc(/C=C2\\SC(=O)N(CC(=O)Nc3nc(-c4ccccc4)cs3)C2=O)cc(OC)c1OC", "readout": "Topoisomerase Inhibition hTopo I", "result": "−"}
{"compound": "Cc1c2ccncc2c(C)c2c1[nH]c1ccccc12 [ellipticine, reference compound]", "readout": "Topoisomerase Inhibition hTopo I", "result": "+"}
{"compound": "COc1cc(/C=C2\\SC(=O)N(CC(=O)Nc3nc(-c4ccc(Cl)cc4)cs3)C2=O)cc(OC)c1OC", "readout": "Topoisomerase Inhibition hTopo I", "result": "−"}
{"compound": "COc1cc(/C=C2\\SC(=O)N(CC(=O)Nc3nc(-c4ccc(Br)cc4)cs3)C2=O)cc(OC)c1OC", "readout": "Topoisomerase Inhibition hTopo I", "result": "−"}
